Measured Dmax (%) H1975 # 28 DTC by item
system: EGFR-Del19/T790M/C797S; test: EGFR degradation HTRF assay in H1975-clone #28 cells; type: cell-based; settings: H1975-clone #28 (Del19/T790M/C797S) cells, 16 h treatment, maximum percentage of inhibition (degradation)
ASSAY METRIC: Dmax (%) H1975 # 28 DTC

- CCOc1cc(N2CCC(N3CCC4(CC3)CN(c3cc(F)c([C@H]5CCC(=O)NC5=O)c(F)c3)C4)CC2)c(CC)cc1Nc1ncc(Br)c(Nc2ccc3nc(CC)ncc3c2P(C)(C)=O)n1 (single isomer, unassigned) [Example 19]: 91
- CCc1cc(Nc2ncc(Br)c(Nc3ccc4nc(C)c(F)cc4c3P(C)(C)=O)n2)c(OC)cc1N1CCC(N2CC(CN3CCC(c4cc(F)c([C@H]5CCC(=O)NC5=O)c(F)c4)CC3)C2)CC1 [Example 56]: 86
- CCc1cc(Nc2ncc(Br)c(Nc3ccc4nc(C)c(F)cc4c3P(C)(C)=O)n2)c(OC)cc1N1CCC(N2CC(N3CCN(c4cc(F)c([C@H]5CCC(=O)NC5=O)c(F)c4)CC3)C2)CC1 (single isomer, unassigned) [Example 16]: 88
- CCc1ncc2c(P(C)(C)=O)c(Nc3nc(Nc4cc(CC)c(N5CCC(N6CC(CN7CCC(c8cc(F)c([C@H]9CCC(=O)NC9=O)c(F)c8)CC7)C6)CC5)cc4OC)ncc3Br)ccc2n1 [Example 55]: 91
- CCc1cc(Nc2ncc(Br)c(Nc3ccc4nc(C)c(F)cc4c3P(C)(C)=O)n2)c(OC)cc1N1CCC(N2CCN(C3CN(c4cc(F)c([C@H]5CCC(=O)NC5=O)c(F)c4)C3)CC2)CC1 [Example 8]: 80
- COc1cc(N2CCC3(CC2)CCN(C2CCN(c4cc(F)c([C@H]5CCC(=O)NC5=O)c(F)c4)CC2)CC3)c(C)cc1Nc1ncc(Br)c(Nc2ccc3nc(C)c(F)cc3c2P(C)(C)=O)n1 [Example 37]: 90
- CCc1cc(Nc2ncc(Br)c(Nc3ccc4nc(C)c(F)cc4c3P(C)(C)=O)n2)c(OC)cc1N1CCC2(CCN(CC3CCN(c4cccc5c4C(=O)N(C4CCC(=O)NC4=O)C5=O)CC3)CC2)CC1 (stereo not drawn) [Example 45]: 81
- CCc1ccc2c(P(C)(C)=O)c(Nc3nc(Nc4cc(CC)c(N5CCC(N6CC7(CCN(c8cc(F)c([C@H]9CCC(=O)NC9=O)c(F)c8)CC7)C6)CC5)cc4OC)ncc3Br)ccc2n1 [Example 58]: 91
- CCc1ncc2c(P(C)(C)=O)c(Nc3nc(Nc4cc(CC)c(N5CCC(N6CC(N7CCC(c8cc(F)c([C@H]9CCC(=O)NC9=O)c(F)c8)CC7)C6)CC5)cc4OC)ncc3Br)ccc2n1 [Example 13]: 92

---

Examples of compounds with documented Dmax (%) H1975 # 28 DTC follow.
system: EGFR-Del19/T790M/C797S; assay: EGFR degradation HTRF assay in H1975-clone #28 cells; format: cell-based; conditions: H1975-clone #28 (Del19/T790M/C797S) cells, 16 h treatment, maximum percentage of inhibition (degradation)
ASSAY METRIC: Dmax (%) H1975 # 28 DTC

- CCc1cc(Nc2ncc(Br)c(Nc3ccc4nc(C)c(F)cc4c3P(C)(C)=O)n2)c(OC)cc1N1CCC2(CC1)CCN(C1CCN(c3cccc4c3n(C)c(=O)n4C3CCC(=O)NC3=O)CC1)CC2 (stereo not shown): 77
- CCc1ccc2c(P(C)(C)=O)c(Nc3nc(Nc4cc(CC)c(N5CCC(N6CCN(C7CCN(c8cc(F)c([C@H]9CCC(=O)NC9=O)c(F)c8)CC7)CC6)CC5)cc4OC)ncc3Br)ccc2n1 (single isomer, unassigned): 88
- CCc1ncc2c(P(C)(C)=O)c(Nc3nc(Nc4cc(CC)c(N5CCC6(CCN(CCc7cc(F)c([C@H]8CCC(=O)NC8=O)c(F)c7)CC6)CC5)cc4OC)ncc3Br)ccc2n1: 88
- CCc1cc(Nc2ncc(Br)c(Nc3ccc4nc(C)c(F)cc4c3P(C)(C)=O)n2)c(OC)cc1N1CCC2(CC1)CN(C1CCN(c3cc(F)c([C@H]4CCC(=O)NC4=O)c(F)c3)CC1)C2: 89
- CCc1cc(Nc2ncc(Br)c(Nc3ccc4nc(C)c(F)cc4c3P(C)(C)=O)n2)c(OC)cc1N1CCC2(CCN(CCc3cc(F)c([C@H]4CCC(=O)NC4=O)c(F)c3)CC2)CC1: 80
- CCc1ccc2c(P(C)(C)=O)c(Nc3nc(Nc4cc(CC)c(N5CCC(N6CCC(N7CC(c8cccc9c8n(C)c(=O)n9C8CCC(=O)NC8=O)C7)CC6)CC5)cc4OC)ncc3Br)ccc2n1 (stereo not shown): 74
- CCc1ccc2c(P(C)(C)=O)c(Nc3nc(Nc4cc(C)c(N5CCC6(CCN(CCc7cccc8c7n(C)c(=O)n8C7CCC(=O)NC7=O)CC6)CC5)cc4OC)ncc3Br)ccc2n1 (stereo not shown): 82
- CCc1cc(Nc2ncc(Br)c(Nc3ccc4nc(C)c(F)cc4c3P(C)(C)=O)n2)c(OC)cc1N1CCC2(CCN(C(=O)CN3CCC(c4ccc(NC5CCC(=O)NC5=O)cc4)CC3)CC2)CC1 (single isomer, unassigned): 88
- CCc1cc(Nc2ncc(Br)c(Nc3ccc4nc(C)c(F)cc4c3P(C)(C)=O)n2)c(OC)cc1N1CCC(N2CCN(C3CN(c4cccc5c4n(C)c(=O)n5C4CCC(=O)NC4=O)C3)CC2)CC1 (stereo not shown): 74
- COc1cc(N2CCC3(CC2)CCN(C2CCN(c4cc(F)c([C@H]5CCC(=O)NC5=O)c(F)c4)CC2)CC3)c(C)cc1Nc1ncc(Br)c(Nc2ccc3nccnc3c2P(C)(C)=O)n1: 93
- CCc1ncc2c(P(C)(C)=O)c(Nc3nc(Nc4cc(CC)c(N5CCC6(CC5)CCN(C5CCN(c7cc(F)c([C@H]8CCC(=O)NC8=O)c(F)c7)CC5)CC6)cc4OC)ncc3Br)ccc2n1: 91
- CCc1cc(Nc2ncc(Br)c(Nc3ccc4nc(C)c(F)cc4c3P(C)(C)=O)n2)c(OC)cc1N1CCC2(CCN(CCNc3cc(F)c([C@H]4CCC(=O)NC4=O)c(F)c3)CC2)CC1 (single isomer, unassigned): 87
- CCc1cc(Nc2ncc(Br)c(Nc3ccc4nc(C)c(F)cc4c3P(C)(C)=O)n2)c(OC)cc1N1CCC(N2CC3(CCN(c4cc(F)c([C@H]5CCC(=O)NC5=O)c(F)c4)CC3)C2)CC1 (single isomer, unassigned): 91
- CCc1cc(Nc2ncc(Br)c(Nc3ccc4nc(C)c(F)cc4c3P(C)(C)=O)n2)c(OC)cc1N1CCC2(CC1)CCN(C1CC(c3cc(F)c([C@H]4CCC(=O)NC4=O)c(F)c3)C1)CC2 (single isomer, unassigned): 90
- CCc1ccc2c(P(C)(C)=O)c(Nc3nc(Nc4cc(CC)c(N5CCC(N6CC(N7CCC(c8cc(F)c([C@H]9CCC(=O)NC9=O)c(F)c8)CC7)C6)CC5)cc4OC)ncc3Br)ccc2n1: 89
- CCc1ncc2c(P(C)(C)=O)c(Nc3nc(Nc4cc(CC)c(N5CCC(N6CCN(C7CN(c8cc(F)c([C@H]9CCC(=O)NC9=O)c(F)c8)C7)CC6)CC5)cc4OC)ncc3Br)ccc2n1 (single isomer, unassigned): 86
- CCc1cc(Nc2ncc(Cl)c(Nc3ccc4nc(C)c(F)cc4c3P(C)(C)=O)n2)c(OC)cc1N1CCC2(CC1)CCN(C1CCN(c3cc(F)c([C@H]4CCC(=O)NC4=O)c(F)c3)CC1)CC2: 89
- CCc1cc(Nc2ncc(Br)c(Nc3ccc4nc(C)c(F)cc4c3P(C)(C)=O)n2)c(OC)cc1N1CCC2(CCN(CC3CN(c4cc(F)c([C@H]5CCC(=O)NC5=O)c(F)c4)C3)CC2)CC1: 92
- CCOc1cc(N2CCC(N3CCN(C4CCN(c5cc(F)c([C@H]6CCC(=O)NC6=O)c(F)c5)CC4)CC3)CC2)c(CC)cc1Nc1ncc(Cl)c(Nc2ccc3nc(C)c(F)cc3c2P(C)(C)=O)n1: 86

---

target: EGFR-L858R/T790M/C797S (Homo sapiens, UniProt P00533, C797S/L858R/T790M); construct: expressed in transfected cells; host or cells: H1975-clone #25 (lentiviral over-expression, endogenous EGFR knocked out); test: EGFR degradation HTRF assay in H1975-clone #25 cells; format: cell-based; settings: NCI-H1975, H1975-clone #25 (L858R/T790M/C797S) cells, 16 h treatment, maximum percentage of inhibition (degradation), read-out: Dmax (%) H1975 # 25-LTC
Sequence (P00533 25-1210 T790M/C797S/L858R): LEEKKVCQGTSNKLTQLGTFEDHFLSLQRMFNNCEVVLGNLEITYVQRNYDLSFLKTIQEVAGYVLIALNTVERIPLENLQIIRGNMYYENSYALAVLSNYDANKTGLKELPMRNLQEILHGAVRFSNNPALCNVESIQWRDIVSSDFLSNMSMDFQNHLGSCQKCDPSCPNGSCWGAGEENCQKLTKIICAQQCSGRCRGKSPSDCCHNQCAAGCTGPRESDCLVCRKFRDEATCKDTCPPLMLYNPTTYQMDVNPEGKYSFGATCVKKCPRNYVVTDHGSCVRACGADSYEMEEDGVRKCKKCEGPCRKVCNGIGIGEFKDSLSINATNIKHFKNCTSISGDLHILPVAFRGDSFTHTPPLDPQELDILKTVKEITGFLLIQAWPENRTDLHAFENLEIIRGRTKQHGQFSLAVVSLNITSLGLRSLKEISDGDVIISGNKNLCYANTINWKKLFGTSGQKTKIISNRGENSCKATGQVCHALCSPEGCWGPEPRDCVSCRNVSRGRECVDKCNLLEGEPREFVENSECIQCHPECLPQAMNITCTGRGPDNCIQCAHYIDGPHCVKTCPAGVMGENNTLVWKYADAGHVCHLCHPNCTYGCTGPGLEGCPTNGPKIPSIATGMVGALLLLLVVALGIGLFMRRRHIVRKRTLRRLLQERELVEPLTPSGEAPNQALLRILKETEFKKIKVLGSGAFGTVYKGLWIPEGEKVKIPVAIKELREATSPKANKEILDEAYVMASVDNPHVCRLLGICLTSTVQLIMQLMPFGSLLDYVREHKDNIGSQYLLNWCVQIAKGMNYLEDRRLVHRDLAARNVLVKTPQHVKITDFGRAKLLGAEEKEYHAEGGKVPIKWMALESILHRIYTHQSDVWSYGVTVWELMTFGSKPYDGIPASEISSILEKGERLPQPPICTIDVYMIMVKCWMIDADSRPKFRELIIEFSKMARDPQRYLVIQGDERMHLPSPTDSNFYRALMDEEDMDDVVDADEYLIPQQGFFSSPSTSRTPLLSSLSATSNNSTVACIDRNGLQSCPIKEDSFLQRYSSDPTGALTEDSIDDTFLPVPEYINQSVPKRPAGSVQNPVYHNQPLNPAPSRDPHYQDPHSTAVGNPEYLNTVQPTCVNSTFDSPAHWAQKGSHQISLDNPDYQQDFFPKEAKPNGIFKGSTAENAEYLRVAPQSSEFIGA
Dmax values for the compounds below.
ASSAY METRIC: Dmax (%)

* COc1cc(N2CCC3(CC2)CCN(C2CCN(c4cc(F)c([C@H]5CCC(=O)NC5=O)c(F)c4)CC2)CC3)c(C)cc1Nc1ncc(Br)c(Nc2ccc3nccnc3c2P(C)(C)=O)n1 | 94
* CCc1cc(Nc2ncc(Cl)c(Nc3ccc4nc(C)c(F)cc4c3P(C)(C)=O)n2)c(OC)cc1N1CCC2(CCN(CCc3cc(F)c([C@H]4CCC(=O)NC4=O)c(F)c3)CC2)CC1 | 88
* CCc1cc(Nc2ncc(Br)c(Nc3ccc4nc(C)c(F)cc4c3P(C)(C)=O)n2)c(OC)cc1N1CCC2(CCN(CCCc3cccc4c3n(C)c(=O)n4C3CCC(=O)NC3=O)CC2)CC1 (stereo not drawn) | 87
